Catalogue of fluorescence intensity readings, one per entry.
- SYSTEM UNDER TEST: T1, CTLA4 antigen on the surface of 293F-CTLA4 host cells (UniProt P16410 36-223, limits assumed)
- T1 construct: whole, on cells
- T1 sequence (looked up): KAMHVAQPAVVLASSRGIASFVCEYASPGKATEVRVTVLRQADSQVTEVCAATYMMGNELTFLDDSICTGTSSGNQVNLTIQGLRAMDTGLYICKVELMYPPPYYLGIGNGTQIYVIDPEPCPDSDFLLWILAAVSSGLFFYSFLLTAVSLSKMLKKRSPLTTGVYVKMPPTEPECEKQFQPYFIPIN
- ASSAY OVERVIEW: flow cytometry, 293F-CTLA4 cells; antibody 5 nM
Just the number, please, no unit after it.

[[record]]
binder = "humanized antibody 8D2H3L3 (antibody, V domains shown) VH: EVQLVESGGGLVQPGGSLRLSCAASGFTFSDNWMNWVRQAPGKGLEWVAQIRNKPYNYETEYAASVKGRFTISRDDSKNSAYLQMNSLKTEDTAVYYCTAQFAYWGQGTLVTVSS VL: DIQMTQSPSSLSASVGDRVTITCRASENIYGGLNWYQQKPGKAPKLLIYGATSLASGVPSRFSGSGSGTDYTLTISSLQPEDFATYYCQNVLRSPFTFGSGTKLEIK"
experimental_readout = "fluorescence intensity"
data_value = 971


-- ask Reported fluorescence intensity, binder monoclonal antibody 8D2 (antibody, V domains shown, Murine antibody purified from hybridoma supernatant; also called mAb 8D2; antibody secreted by the CTLA4-8D2 hybridoma cell line LT001) VH: EVKLDETGGGLVQPGRPMKLSCVASGFTFSDNWMNWVRQSPEKGLEWLAQIRNKPYNYETYYSDSVKGRFTISRDDSKSSVYLQMNNLRGEDMGIYYCTAQFAYWGQGTLVTVSA VL: DIQMTQSPASLSASVGETVTITCGTSENIYGGLNWYQRKQGKSPQLLIFGATNLADGMSSRFSGSGSGRQYSLKISSLHPDDVATYYCQNVLRSPFTFGSGTKLEI : ____
-- reply 183

-- ask For the binder shown here, humanized antibody 8D2H1L1 (antibody, V domains shown) VH: EVQLVESGGGLVQPGGSMRLSCAASGFTFSDNWMNWVRQAPGKGLEWLAQIRNKPYNYETYYSDSVKGRFTISRDDSKNSVYLQMNSLKTEDTGVYYCTAQFAYWGQGTLVTVSS VL: DIQMTQSPSSLSASVGDRVTITCRTSENIYGGLNWYQRKQGKSPKLLIYGATNLASGMSSRFSGSGSGTDYTLKISSLHPDDVATYYCQNVLRSPFTFGSGTKLEIK , give the reported fluorescence intensity.
-- reply 559

-- ask Given the binder 8D2 recombinant antibody, 8D2(Re) (antibody, V domains shown) VH: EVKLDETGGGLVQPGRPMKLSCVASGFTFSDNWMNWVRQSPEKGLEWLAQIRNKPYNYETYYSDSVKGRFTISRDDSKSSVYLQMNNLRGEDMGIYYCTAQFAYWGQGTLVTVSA VL: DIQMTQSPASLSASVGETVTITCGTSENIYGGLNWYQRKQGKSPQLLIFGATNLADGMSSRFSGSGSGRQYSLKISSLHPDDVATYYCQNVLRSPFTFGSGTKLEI , what is its reported fluorescence intensity?
-- reply 714
